These entries and their values trace back to ChEMBL document CHEMBL1138528.

- System: Brain
- Test: Drug level in Sprague-Dawley rat brain at 10 mg/kg, po after 2 hrs
- Assay type: ADME, organism-based
- Set-up: dose 10 mg/kg, route oral
- Test Conditions: in vivo
Measured Endpoint: Drug uptake (nmol/g)

I have this molecule here, C[C@@H]1NC(c2cc(C#N)ccn2)=N[C@@]1(c1ccc(F)cc1)c1ccc(F)nc1 , and I need its recorded Drug uptake.
7

And what about the molecule C[C@@H]1NC(c2cccc(=O)[nH]2)=N[C@@]1(c1ccc(F)cc1)c1ccc(F)nc1 ?
0.36

And what about the molecule C[C@@H]1NC(c2cccc(C#N)c2)=N[C@@]1(c1ccc(F)cc1)c1ccc(F)nc1 ?
6.1

And what about the molecule Fc1ccc(C2(c3ccc(F)cc3)CNC(c3cnccn3)=N2)cc1 ?
5.9

And what about the molecule C[C@@H]1NC(c2ccnc(C#N)c2)=N[C@@]1(c1ccc(F)cc1)c1ccc(F)nc1 ?
3.2

I: N#Cc1cccc(C2=NC(c3ccc(F)cc3)(c3ccc(F)cc3)CN2)c1
II: N#Cc1ccnc(C2=NC(c3ccc(F)cc3)(c3ccc(F)cc3)[C@H](CO)N2)c1
III: C[C@@H]1NC(c2cncc(C#N)c2)=N[C@@]1(c1ccc(F)cc1)c1ccc(F)nc1
// sort entries: Drug uptake, high to low Present the labels in the sequence the task asks for.
I, III, II
